Target: Insulin receptor (Homo sapiens) (UniProt P06213)
Sequence (P06213 28-758 limits assumed): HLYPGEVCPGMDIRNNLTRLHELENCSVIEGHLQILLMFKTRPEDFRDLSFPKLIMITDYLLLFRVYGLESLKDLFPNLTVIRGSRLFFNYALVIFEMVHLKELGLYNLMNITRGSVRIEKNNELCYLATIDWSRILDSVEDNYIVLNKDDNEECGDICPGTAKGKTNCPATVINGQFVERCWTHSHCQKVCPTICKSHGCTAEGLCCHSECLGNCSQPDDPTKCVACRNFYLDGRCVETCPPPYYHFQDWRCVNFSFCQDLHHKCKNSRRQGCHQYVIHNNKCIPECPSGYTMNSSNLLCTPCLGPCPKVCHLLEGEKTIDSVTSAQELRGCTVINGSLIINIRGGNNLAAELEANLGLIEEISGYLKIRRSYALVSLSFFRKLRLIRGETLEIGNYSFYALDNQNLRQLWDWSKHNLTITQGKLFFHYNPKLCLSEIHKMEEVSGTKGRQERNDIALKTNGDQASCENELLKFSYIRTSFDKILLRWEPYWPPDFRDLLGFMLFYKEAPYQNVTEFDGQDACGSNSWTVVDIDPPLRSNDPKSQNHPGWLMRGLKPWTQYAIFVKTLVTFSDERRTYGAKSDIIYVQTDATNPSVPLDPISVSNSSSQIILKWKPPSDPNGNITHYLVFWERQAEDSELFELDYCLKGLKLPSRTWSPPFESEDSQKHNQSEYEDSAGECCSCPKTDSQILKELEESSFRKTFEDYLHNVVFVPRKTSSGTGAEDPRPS
Sequence (P06213 763-1382 limits assumed): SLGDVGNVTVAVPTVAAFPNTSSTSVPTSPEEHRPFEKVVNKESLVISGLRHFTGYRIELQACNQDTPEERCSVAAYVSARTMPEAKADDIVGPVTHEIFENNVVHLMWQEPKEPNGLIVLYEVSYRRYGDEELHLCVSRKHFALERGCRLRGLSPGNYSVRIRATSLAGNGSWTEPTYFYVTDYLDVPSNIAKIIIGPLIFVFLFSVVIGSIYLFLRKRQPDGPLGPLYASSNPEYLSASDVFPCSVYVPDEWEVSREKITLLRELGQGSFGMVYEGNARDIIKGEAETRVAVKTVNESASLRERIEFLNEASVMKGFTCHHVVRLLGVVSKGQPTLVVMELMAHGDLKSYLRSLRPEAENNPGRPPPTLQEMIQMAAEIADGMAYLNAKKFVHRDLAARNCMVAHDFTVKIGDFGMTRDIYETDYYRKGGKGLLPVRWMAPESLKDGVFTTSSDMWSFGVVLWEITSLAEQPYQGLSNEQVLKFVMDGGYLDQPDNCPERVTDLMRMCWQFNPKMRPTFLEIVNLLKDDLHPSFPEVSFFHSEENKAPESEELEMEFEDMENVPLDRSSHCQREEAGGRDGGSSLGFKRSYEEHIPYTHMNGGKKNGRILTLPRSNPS
Test: Percent activation of insulin receptor in CHO cells by 10 uM of compound
Format: cell-based
Below, each of the compounds is paired with its reported Activation value.
Give your result in % as a bare value.

>>> recorded_value("C=CC(C)(C)c1[nH]c2ccccc2c1C1=C(OS(=O)(=O)C(F)(F)F)C(=O)C(c2c[nH]c3c(CC=C(C)C)cccc23)=C(N)C1=O")
0
>>> recorded_value("C=CC(C)(C)c1[nH]c2ccccc2c1C1=C(O)C(O)=C(c2c[nH]c3c(CCC(C)(C)OC(=O)C(F)(F)F)cccc23)C(=O)C1=O")
48
>>> recorded_value("C=CC(C)(C)c1c(C2=C(O)C(O)=C(c3cn(C)c4c(CC=C(C)C)cccc34)C(=O)C2=O)c2ccccc2n1C")
3

Enquiry: I would be grateful if you could share the reported Activation for C=CC(C)(C)c1[nH]c2ccccc2c1C1=C(O)C(O)=C(c2c[nH]c3c(CC=C(C)C)cccc23)C(=O)C1=O .
Return: 75

Data credit: ChEMBL document CHEMBL1132897
